Test system: L1210 leukemia ip in BDF1 mice, survival T/C
Assay: NCI In Vivo Anticancer Drug Screen. Data for tumor model L1210 Leukemia (intraperitoneal) in B6D2F1 (BDF1) mice
Conditions: endpoint: mean survival time; dose: 150.0 mg/kg/injection; schedule: Q01DX001 (ip); vehicle: carboxymethylcellulose (CMC); higher = longer survival
Toxic doses and inconclusive results are not listed.
# T/C per record follows

Some solved entries appear below for comparison.
> print(dat)
                                   compound  experimental.result
1  COc1ccc(CC[n+]2ccc(C#N)c(C(C)=O)c2)cc1OC     105 % of control
2  N#CC(C(=O)O)C1(C(C#N)C(=O)O)CCN(Cc2ccccc2)CC1 (centres undefined)     100 % of control
3                        Fc1cc(F)c2ncccc2c1     118 % of control

Let's switch to this compound now.
-- ask Any idea what its T/C is? The compound is `Nc1nc(N)c(-c2ccc(Cl)cc2)c(COc2cccc([N+](=O)[O-])c2)n1`
-- reply 92 % of control

---

Tested on: L1210 leukemia ip in BDF1 mice, survival T/C
Test: NCI In Vivo Anticancer Drug Screen. Data for tumor model L1210 Leukemia (intraperitoneal) in B6D2F1 (BDF1) mice
Details: endpoint: mean survival time; dose: 200.0 mg/kg/injection; schedule: Q04DX002 (ip); vehicle: Klucel (hydroxypropylcellulose) (HPC); higher = longer survival
Inconclusive results and toxic doses are left out.
readout: T/C

Would you please look over these solved cases?
> print(dat)
                                        mol  readout  experimental.result
1                    CCOC(=O)COc1cc(Cl)ccn1      T/C     104 % of control
2  COC(=O)c1cc(Cl)ccc1OCC(=O)Nc1cccc([N+](=O)[O-])c1      T/C      92 % of control
3         COc1ccc(/C=N\NC(=O)c2ccncc2)cc1OC      T/C     109 % of control

-- ask // query T/C value for entry `O=C(O)COc1cccc(Cl)c1F`
-- reply 107 % of control

-- ask Which T/C reading was recorded for the compound `CC(=O)CC(=O)C(F)(F)F.CC(=O)CC(=O)C(F)(F)F.CC(=O)CC(=O)C(F)(F)F.CC(=O)CC(=O)C(F)(F)F.[Hf]` ?
-- reply 93 % of control

-- ask Looking for the measured T/C of `CCOC(=O)CC(C)=O.CCOC(=O)CC(C)=O.CCOC(=O)CC(C)=O.[Al]` , can you help?
-- reply 93 % of control

-- ask Given the compound `O=C(O)/C(Br)=C\c1ccc(Br)o1` , what is its reported T/C?
-- reply 90 % of control

-- ask For `COC(=O)N/N=C/c1ccccc1Cl` , what is its reported T/C?
-- reply 104 % of control

-- ask Item `CCCCCCCCCCCCCCOc1ccc(S(=O)(=O)/N=C(\N)NC(N)=NCCCCCCCCCC)cc1` has what recorded T/C?
-- reply 101 % of control

-- ask Returns the measured T/C for the input compound. Input: `CC(=O)c1ccc(-c2ccc(C(C)=O)cc2)cc1`
-- reply 101 % of control

-- ask What does the data say about its T/C? Entry: `CCCCNC(=O)Nc1ccc(Cl)cc1`
-- reply 100 % of control

---

Tested on: L1210 leukemia ip in BDF1 mice, survival T/C
Assay: NCI In Vivo Anticancer Drug Screen. Data for tumor model L1210 Leukemia (intraperitoneal) in B6D2F1 (BDF1) mice
Conditions: endpoint: mean survival time; dose: 400.0 mg/kg/injection; schedule: Q04DX003 (ip); vehicle: Klucel (hydroxypropylcellulose) (HPC); higher = longer survival
Toxic doses and inconclusive results are not listed.
readout: T/C

-- ask Endpoint output: T/C of `O=C(O)/C(=C\c1ccc(Cl)cc1)c1ccc(Cl)cc1` . Value?
-- reply 95 % of control

---

Recorded measurements of T/C, one per entry
System: L1210 leukemia ip in BDF1 mice, survival T/C
Assay: NCI In Vivo Anticancer Drug Screen. Data for tumor model L1210 Leukemia (intraperitoneal) in B6D2F1 (BDF1) mice
Details: endpoint: mean survival time; dose: 100.0 mg/kg/injection; schedule: Q01DX001 (ip); vehicle: Klucel (hydroxypropylcellulose) (HPC); higher = longer survival
Toxic doses and inconclusive results are not listed.

> print(dat)
                                   molecule                          target.or.system  experimental.result
1  CCOC(=O)C(CC(=O)O)C(c1ccccc1)c1ccccc1 (stereo not given)  L1210 leukemia ip in BDF1 mice, survival T/C      99 % of control

-- ask Item: `ClCCN(CCCl)CCN1c2ccccc2Sc2ccccc21` Test system: L1210 leukemia ip in BDF1 mice, survival T/C Read-out: T/C Value: ?
-- reply 119 % of control

-- ask For L1210 leukemia ip in BDF1 mice, survival T/C, provide T/C of `COc1ccc(/C=C(/C)[N+](=O)[O-])cc1` please.
-- reply 97 % of control

-- ask API: value(readout=T/C, system=L1210 leukemia ip in BDF1 mice, survival T/C) for record `Cc1cc(=O)[nH]c2c1ccc1[nH]c(=O)cc(C)c12`
-- reply 91 % of control

-- ask Lab note: need T/C with L1210 leukemia ip in BDF1 mice, survival T/C for entry `Cc1ccc(C(=O)CCCCCC(=O)c2ccc(C)cc2O)c(O)c1` , please look it up.
-- reply 98 % of control

-- ask For L1210 leukemia ip in BDF1 mice, survival T/C, provide T/C of `O=C(Nc1cccc(S(=O)(=O)F)c1)/C(=C/c1ccc([N+](=O)[O-])cc1)c1ccccc1` please.
-- reply 89 % of control

-- ask Query for L1210 leukemia ip in BDF1 mice, survival T/C: what T/C does the record show for `CCOC(=S)c1ccc(S(=O)(=O)NC)cc1` ?
-- reply 109 % of control

-- ask For the record `O=C(Nc1ccc(F)cc1)OCCc1ccccn1` , what value of T/C is listed for L1210 leukemia ip in BDF1 mice, survival T/C?
-- reply 96 % of control

-- ask State its T/C on L1210 leukemia ip in BDF1 mice, survival T/C: `COC(=O)NS(=O)(=O)c1ccn(C)c1`
-- reply 97 % of control

-- ask Query for L1210 leukemia ip in BDF1 mice, survival T/C: what T/C does the record show for `COC(=O)C(c1ccccc1)c1ccccc1` ?
-- reply 97 % of control

-- ask Hello, I am looking for reported T/C with L1210 leukemia ip in BDF1 mice, survival T/C for `CCCCCCCCCCCCCCCCOc1ccc(Cl)cc1` . Could you help?
-- reply 95 % of control

-- ask Test system L1210 leukemia ip in BDF1 mice, survival T/C; read-out T/C; what value for O=C1NC(=O)C(Nc2ccccc2)(c2ccccc2)N1 (stereo not given) ?
-- reply 90 % of control

---

System: L1210 leukemia ip in BDF1 mice, survival T/C
Assay: NCI In Vivo Anticancer Drug Screen. Data for tumor model L1210 Leukemia (intraperitoneal) in B6D2F1 (BDF1) mice
Details: endpoint: mean survival time; dose: 60.0 mg/kg/injection; schedule: Q01DX Z (ip); vehicle: carboxymethylcellulose (CMC); higher = longer survival
Toxic doses and inconclusive results are not listed.
readout: T/C

Observe how each entry below is paired with its result.
> print(dat)
                                   molecule  experimental.result
1  CCOC(C)C(/C=N/Nc1ccccc1)=N\Nc1ccccc1 (stereo not given)      97 % of control
2  CCOC(=O)N\C(N)=N/N=C(C)\C=N\N=C(/N)NC(=O)OCC     106 % of control
3  Nc1ccc(C(=O)Nc2ccc(NC(=O)Nc3ccc(NC(=O)c4ccc(N)cc4)c(S(=O)(=O)O)c3)cc2S(=O)(=O)O)cc1      96 % of control
4  Clc1ccccc1/C=N\N=C(N/N=C\c1ccccc1Cl)N/N=C/c1ccccc1Cl      98 % of control

Now look at this entry.
-- ask Please give the measured T/C for this molecule: `NC(N)=N/N=C(\c1ccc(Br)cc1)C1CC1`
-- reply 96 % of control

---

System: L1210 leukemia ip in BDF1 mice, survival T/C
Assay: NCI In Vivo Anticancer Drug Screen. Data for tumor model L1210 Leukemia (intraperitoneal) in B6D2F1 (BDF1) mice
Settings: endpoint: mean survival time; dose: 100.0 mg/kg/injection; schedule: Q04DX002 (ip); vehicle: Klucel (hydroxypropylcellulose) (HPC); higher = longer survival
Inconclusive results and toxic doses are left out.
Measured T/C, listed per entry.

These recorded examples may help you get a feel for the data.
> print(dat)
                                   compound  experimental.result
1  CC(C)CN1C(c2ccccc2)=CN(Cc2ccccc2)C=C1c1ccccc1     100 % of control
2  NC(CC1CCCCC1)C(=O)O (configuration not stated)      91 % of control
3            Cn1c2c(c(=O)n(C)c1=O)CCC(=O)N2     106 % of control

-- ask What value of measured T/C is listed for `CCOC(=O)Nc1ccccn1` ?
-- reply 100 % of control

-- ask Record request: T/C value, item `COc1ccc(N=C(CCl)Nc2ccc(OC)cc2)cc1`
-- reply 94 % of control

-- ask State the recorded T/C for this entry: `COc1cccc(OC)c1C(=O)O`
-- reply 100 % of control
